Tested On: UniProt:P41595
Assay Overview: 5HTR2B antagonist activity, calcium mobilization assay in human Maverick/293 cells (serotonin as agonist)
Assay Conditions: intracellular calcium, emission 525 nm, read-out: Ca assay IC50
Endpoint Label: IC50 (nM)

Below are worked cases with known answers.
• CCOc1ccc(S(=O)(=O)N[C@H]2CCOC2)cc1C(=O)Nc1ccc(F)c(C)n1 = 0.7
• COc1ccc(S(=O)(=O)N[C@H]2C[C@@H](O)C2)cc1C(=O)Nc1c(C)cccc1Cl [Compound 138b] = 329
• COc1ccc(S(=O)(=O)N[C@H]2C[C@H](O)C2)cc1C(=O)Nc1cc(C)ccc1Cl [Compound 137a] = 17.1
• COc1ccc(S(=O)(=O)N[C@H]2CCOC2)cc1C(=O)Nc1ccc(F)cc1F = 0.34
• COc1ccc(S(=O)(=O)N[C@H]2CCOC2)cc1C(=O)Nc1c(F)cccc1F = 12

a = COc1ccc(S(=O)(=O)NC2CC[C@H](O)C2)cc1C(=O)Nc1ccc(F)c(C(F)F)c1 (stereo in doubt) [Compound 33b]
b = COc1ccc(S(=O)(=O)N[C@H]2CCOC2)cc1C(=O)Nc1ccc(F)cn1
INPUT: Which is greater in IC50, the first item a or the second item b ? API: response body contains the label of the selected item.
OUTPUT: b
(b: 5.4 nM, a: 0.4 nM)

====

Tested On: 5HTR2B (Homo sapiens)
Sequence (P41595 whole entry): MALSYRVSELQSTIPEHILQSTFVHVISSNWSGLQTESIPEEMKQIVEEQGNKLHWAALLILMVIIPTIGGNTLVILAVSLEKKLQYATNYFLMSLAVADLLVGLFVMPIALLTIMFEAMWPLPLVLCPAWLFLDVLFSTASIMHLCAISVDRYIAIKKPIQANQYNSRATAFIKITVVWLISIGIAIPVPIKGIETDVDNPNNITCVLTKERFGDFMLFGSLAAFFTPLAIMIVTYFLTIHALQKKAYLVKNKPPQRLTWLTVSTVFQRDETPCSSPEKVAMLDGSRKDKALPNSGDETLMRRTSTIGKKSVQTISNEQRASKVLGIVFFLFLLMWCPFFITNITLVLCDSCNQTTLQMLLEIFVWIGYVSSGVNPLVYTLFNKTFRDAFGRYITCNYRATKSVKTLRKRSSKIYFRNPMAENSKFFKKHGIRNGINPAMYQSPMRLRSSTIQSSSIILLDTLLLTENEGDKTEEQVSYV
Assay Overview: 5HTR2B antagonist activity, calcium mobilization assay in human Maverick/293 cells (serotonin as agonist)
Assay Conditions: intracellular calcium, emission 525 nm, read-out: Ca assay IC50
Endpoint Label: IC50 (nM)

- COc1ccc(S(=O)(=O)N[C@H]2CCN(C)C2)cc1C(=O)Nc1ccc(F)c(C)n1 [Compound 176]: 5
- COc1ccc(S(=O)(=O)N[C@H]2C[C@@H](O)C2)cc1C(=O)Nc1ccc(F)cc1F [Compound 145b]: 1

A = COc1ccc(S(=O)(=O)N[C@H]2CCOC2)cc1NC(=O)c1ccc(F)c(C)c1 [Compound 203]
B = COc1ccc(S(=O)(=O)N[C@H]2CCOC2)cc1C(=O)Nc1cc(F)ccc1F [Compound 69]
INPUT: Consider entries A and B . Which has the numerically lower IC50? Choose, then provide that item's label.
OUTPUT: B

====

Tested On: 5HTR2B (Homo sapiens)
Assay Overview: 5HTR2B antagonist activity, calcium mobilization assay in human Maverick/293 cells (serotonin as agonist)
Assay Conditions: intracellular calcium, emission 525 nm, read-out: Ca assay IC50
pIC50: −log10 of the molar value.
Endpoint Label: pIC50

• COc1ccc(S(=O)(=O)N[C@@H](C)C(N)=O)cc1C(=O)Nc1ccc(F)cc1 [Compound 46b] = 8.74
• COc1ccc(S(=O)(=O)NC2CCCC2)cc1C(=O)Nc1ccc(F)cc1 = 9.00
• COc1ccc(S(=O)(=O)N[C@H]2C[C@@H](O)C2)cc1C(=O)Nc1ccc(Cl)cc1F [Compound 143b] = 8.23

P = [2H]C([2H])([2H])Oc1ccc(S(=O)(=O)N[C@H]2CCOC2)cc1C(=O)Nc1ncc(F)cc1F
Q = COc1ccc(S(=O)(=O)N[C@@H]2CC[C@H](O)C2)cc1C(=O)Nc1ccc(F)c(C)c1 (single isomer, unassigned) [Compound 15b]
INPUT: Sorting ascending by pIC50, which comes first: P or Q ? Identify your pick by its label.
OUTPUT: P

P = COc1ccc(S(=O)(=O)N[C@H]2CCOC2)cc1C(=O)Nc1ncc(F)cn1
Q = COc1ccc(S(=O)(=O)N[C@H]2CCOC2)cc1C(=O)Nc1c(F)ccc(Cl)c1F
R = COc1ccc(S(=O)(=O)N[C@H]2CCOC2)cc1C(=O)Nc1ccc(Cl)c(Cl)c1
S = COc1ccc(S(=O)(=O)N[C@H]2CCOC2)cc1C(=O)Nc1ccc(C(F)(F)F)cc1
T = COc1ccc(S(=O)(=O)N[C@H]2CCOC2)cc1C(=O)Nc1ccccc1C(F)(F)F
INPUT: Rank by pIC50 (largest to smallest). Answer by naming the labels in the order asked.
OUTPUT: R, T, P, S, Q
(R: 8.29, T: 8.08, P: 7.19, S: 6.66, Q: 5.97)
